Test system: HCC-2998 colon
Test: NCI tumour cell line growth inhibition, 48 h
measure: TGI

1) CNC(C)Cc1ccc(O)cc1 (configuration not stated)    > 100 µM
2) C=C(C)[C@@H]1CC[C@]2(C)[C@H](CC=C3[C@@H]4[C@H](C)[C@@H](C)CC[C@]4(CO)CC[C@]32C)[C@@]1(C)CCCN    1.62 µM
3) Cc1cccc(O)c(=O)c1    > 100 µM
4) O=C(O)c1oc2cccc3c2c1CCC3    > 100 µM
5) CCCNc1cccc(-n2ncc3c(N/N=C/c4ccncc4)ncnc32)c1    > 25 µM
6) CS(=O)(=O)Nc1cc(-c2ccc3ncnc(Nc4cccc(Cl)c4F)c3c2)cnc1Cl    5.01 µM
7) CCCC(=O)Nc1cc(/C=C/C(=O)N2C[C@H]3C[C@@]34C2=CC(=O)c2[nH]cc(C)c24)n(C)c1    < 0.0025 µM
8) CC1(C)CC2(C)OC(=N)C1(C#N)C2(C#N)C#N (configuration not stated)    24.4 µM
9) c1ccc(CNc2ncnc3n[nH]nc23)cc1    > 100 µM
10) COC(=O)C12C3C4C1C1C2C3C41C(=O)N(C(C)C)C(C)C (configuration not stated)    > 100 µM
11) CC1(C)N=C(N)N=C(N)N1c1ccc(OCCCCNC(=O)c2ccc(S(=O)(=O)F)cc2)c(Cl)c1    > 100 µM
12) O=C1NC(O)CCN1C1CC(O)C(CO)O1 (configuration not stated)    > 100 µM
13) CSC1NNC2(C(=O)N1)c1ccccc1-c1ccccc12 (configuration not stated)    > 10 µM
14) C=C1C(=O)O[C@H]2[C@H]([C@H](C)CCCC(C)=O)O[C@H]([C@@]3(C)CCC(=O)O3)C[C@@H]12    > 100 µM
15) COC(=O)c1c(C#C[Si](C)(C)C)c(C#C[Si](C)(C)C)c(C#C[Si](C)(C)C)c(C#C[Si](C)(C)C)c1C(=O)OC    > 100 µM
16) O=C(C=P(c1ccccc1)(c1ccccc1)c1ccccc1)c1ccc(-c2ccc(F)cc2F)cc1    4.12 µM
17) O=C(O)c1ccc2cccnc2c1O    37.5 µM
18) Cc1nnc2sc(-c3ccc([N+](=O)[O-])o3)nn12    25 µM
19) O=C(NCCCCNCCCNC(=O)OCc1ccccc1)OCc1ccccc1    38.7 µM
20) Cn1c(=O)c2[nH]c(CCC(=O)O)nc2n(C)c1=O    > 100 µM
21) C[C@@H](c1ccccc1)N(CC#N)C1CCC[C@H]1O (some centres not stated)    > 100 µM
22) Cc1nn(-c2ccccn2)c2c1C(SC#N)=C(C=O)CC2    24.2 µM

----------
Tested on: PC-3 prostate
Assay: NCI tumour cell line growth inhibition, 48 h; in the data active = GI50 below about 0.43 µM; inactive = the rest
Outcomes: active, inactive

1) O=S1(=O)CC(Br)C(Br)C1 (stereo unspecified)    inactive
2) Cc1nc2sc(C(=O)Nc3cccc(Cl)c3C)c(N)c2cc1C(C)O (stereo unspecified)    active
3) S=C(Nc1ccccc1)N1CCn2c1nsc2=Nc1ccccc1    inactive
4) CC[C@H](C)[C@H](NC(=O)c1nccn1C)C(=O)N(C)[C@H](C[C@@H](OC(C)=O)c1nc(C(=O)N[C@@H](Cc2ccccc2)C[C@H](C)C(=O)OC)cs1)C(C)C    inactive
5) N#Cc1ncc(N2C(=O)C3(CCC3)N(c3ccc(OC4CCNCC4)nc3)C2=S)cc1C(F)(F)F    inactive
6) O=c1oc2cc(OS(=O)(=O)c3ccccc3)ccc2c2c1CCCCC2    inactive

----------
Test system: HOP-92 NSCLC
Test: NCI tumour cell line growth inhibition, 48 h
The compounds listed here are annotated with their TGI.
measure: TGI (µM)

1. COc1cc(/C=C/c2cc(/C=C/c3ccc(O)c(OC)c3)[nH]c(=O)n2)ccc1O    9.24
2. C=C1C(=O)O[C@H]2[C@H]1CC/C(COC(=O)/C=C/c1c[nH]c3ccccc13)=C\CC[C@@]1(C)O[C@@H]21    0.369
3. CC(=O)O[C@H]1C(=O)[C@@]2(C)C(C(OC(=O)c3ccccc3)[C@]3(O)CC(OC(=O)C(O)C(NC(=O)c4ccccc4)c4ccc(C)cc4)C(C)=C1C3(C)C)[C@]1(OC(C)=O)CO[C@@H]1C[C@@H]2O (stereo partly drawn)    11.3
4. FC(F)(F)c1cc(NC2=NCCN=C(Nc3cc(C(F)(F)F)cc(C(F)(F)F)c3)SS2)cc(C(F)(F)F)c1    5.01

----------
System: NCI-H460 lung
Outcomes: class 1 for active, class 0 for inactive

1. Cc1nn2c(/C=C3\C(=O)Nc4ccccc43)c(C)nc2s1    class 0
2. Cc1ccc(S(=O)(=O)c2ccsc2N)cc1    class 0
3. Cc1ccc2cnc(N)c(C#Cc3cncc(C(=O)Nc4ccc(CN5CCN(C)CC5)c(C(F)(F)F)c4)c3)c2c1    class 1
4. Cn1c(O)c(N=NC(N)=S)c2ccccc21    class 0
5. Cc1ccc(/C=C2\CN(Cc3cn(CCNc4ccnc5cc(Cl)ccc45)nn3)C/C(=C\c3ccc(C)cc3)C2=O)cc1    class 0
6. O=[N+]([O-])c1ccc(NC(=S)N/N=C(\c2ccccc2)c2ccccn2)cc1    class 0
7. CCC1(CC)C(=O)[N-]C(=O)[N-]C1=O.[Au+].[Au+].c1ccc([PH+](c2ccccc2)c2ccccc2)cc1.c1ccc([PH+](c2ccccc2)c2ccccc2)cc1    class 0
8. O=c1oc2cc(OS(=O)(=O)c3ccccc3)ccc2c2c1CCCCC2    class 0
9. CCCNc1cccc(-n2ncc3c(N/N=C/c4ccncc4)ncnc32)c1    class 0
10. Cc1nc2sc(C(=O)Nc3cccc(Cl)c3C)c(N)c2cc1C(C)O (stereo unspecified)    class 1
11. N#Cc1ccc2c(c1)C(=O)c1c-2n(CCCN=[N+]=[N-])c(=O)c2cc([N+](=O)[O-])ccc12    class 0

----------
Tested on: HCT-116 colon
Test: NCI tumour cell line growth inhibition, 48 h
Classify by measured TGI: yes if it is equal to or exceeds 20 µM, no if it is smaller.

1) COC1=CC(=O)c2c(cc(COP(=O)(N(C)CCBr)N(C)CCBr)n2C)C1=O    no
2) C/C=C/C(=O)[O-].N.N.N.N.N.[Co+3].[O-][Cl+3]([O-])([O-])[O-]    yes
3) N#Cc1c(C#N)c(-c2ccccc2)n(/N=C\c2ccccc2)c1N    yes
4) O=C(Nc1ccc(-c2ccnc(Nc3ccc(N4CCOCC4)cc3)n2)cc1)C1CCCN1 (centres undefined)    no
5) CC(=O)O[C@H]1C(=O)[C@@]2(C)C(C(OC(=O)c3ccccc3)[C@]3(O)CC(OC(=O)C(O)C(NC(=O)c4ccccc4)c4ccc(C)cc4)C(C)=C1C3(C)C)[C@]1(OC(C)=O)CO[C@@H]1C[C@@H]2O (some centres undefined)    no
6) C[C@@H]1OCC(O)C([C@H]2OC(c3ccccc3)=N[C@H]2CO)O1 (some centres undefined)    yes
7) O=C1OC(c2ccccc2)=N/C1=C/N1CCCC1C(=O)O (centres undefined)    yes
8) O=C(O)c1ccc2cccnc2c1O    yes
9) COc1cc2c3c(c1OC)Oc1ccc(cc1)CC1c4c(cc(OC)c(OC)c4Oc4ccc(cc4)CC3N(C)CC2)CCN1C (centres undefined)    yes

----------
The compounds listed here are annotated with their GI50.
Test system: M14 melanoma
Experiment: NCI tumour cell line growth inhibition, 48 h
measure: GI50

1. C[C@H]1CCC/C=C/[C@@H]2C[C@H](O)C[C@H]2[C@H](O)[C@@H](SC2OC(CO)C(O)C(O)C2O)CC(=O)O1 (some centres undefined)    61300 nM
2. CCCNc1cccc(-n2ncc3c(N/N=C/c4ccncc4)ncnc32)c1    1690 nM
3. Cc1ccc(/C=C2\CN(Cc3cn(CCNc4ccnc5cc(Cl)ccc45)nn3)C/C(=C\c3ccc(C)cc3)C2=O)cc1    2200 nM
4. CC(C)(F)C[C@H](N[C@@H](c1ccc(-c2ccc(S(C)(=O)=O)cc2)cc1)C(F)(F)F)C(=O)NC1(C#N)CC1    > 100000 nM

----------
Tested on: HL-60(TB) leukemia
Test: NCI tumour cell line growth inhibition, 48 h
measure: TGI (µM)

1. Cc1ccc2cnc(N)c(C#Cc3cncc(C(=O)Nc4ccc(CN5CCN(C)CC5)c(C(F)(F)F)c4)c3)c2c1    0.908
2. O=C(O)c1ccc2cccnc2c1O    6.43
3. COc1cc(/C=C/c2cc(/C=C/c3ccc(O)c(OC)c3)[nH]c(=O)n2)ccc1O    12.1
4. COC(=O)C1=C(c2cc(OC)c(OC)c(OC)c2)O[C@H](c2ccc3c(c2)OCO3)[C@H]1COC(C)=O    40.3
5. O=C(Nc1ccccc1C(=O)O)C(=O)C(C(=O)c1ccccc1-c1ccccc1)C1OC(=O)c2ccccc21 (centres undefined)    70.6
6. O=C(Nc1ccc(-c2ccnc(Nc3ccc(N4CCOCC4)cc3)n2)cc1)C1CCCN1 (centres undefined)    25.5
7. CCN(CC)CCOc1nc2cc(OC)c(OC)cc2c2c1-c1ccc(OC)cc1C2=O    34.6
8. CC(=O)O[C@H]1C(=O)[C@@]2(C)C(C(OC(=O)c3ccccc3)[C@]3(O)CC(OC(=O)C(O)C(NC(=O)c4ccccc4)c4ccc(C)cc4)C(C)=C1C3(C)C)[C@]1(OC(C)=O)CO[C@@H]1C[C@@H]2O (some centres undefined)    2.55
9. C=C1C(=O)O[C@H]2C/C(C=O)=C\[C@H]3O[C@H]3/C(COC(=O)C(C)C)=C/CC12 (some centres undefined)    5.54
